- subject-of-test: human PSMA on PSMA-expressing cells (human, UniProt Q04609 1-750)
- Sequence (Q04609 whole entry): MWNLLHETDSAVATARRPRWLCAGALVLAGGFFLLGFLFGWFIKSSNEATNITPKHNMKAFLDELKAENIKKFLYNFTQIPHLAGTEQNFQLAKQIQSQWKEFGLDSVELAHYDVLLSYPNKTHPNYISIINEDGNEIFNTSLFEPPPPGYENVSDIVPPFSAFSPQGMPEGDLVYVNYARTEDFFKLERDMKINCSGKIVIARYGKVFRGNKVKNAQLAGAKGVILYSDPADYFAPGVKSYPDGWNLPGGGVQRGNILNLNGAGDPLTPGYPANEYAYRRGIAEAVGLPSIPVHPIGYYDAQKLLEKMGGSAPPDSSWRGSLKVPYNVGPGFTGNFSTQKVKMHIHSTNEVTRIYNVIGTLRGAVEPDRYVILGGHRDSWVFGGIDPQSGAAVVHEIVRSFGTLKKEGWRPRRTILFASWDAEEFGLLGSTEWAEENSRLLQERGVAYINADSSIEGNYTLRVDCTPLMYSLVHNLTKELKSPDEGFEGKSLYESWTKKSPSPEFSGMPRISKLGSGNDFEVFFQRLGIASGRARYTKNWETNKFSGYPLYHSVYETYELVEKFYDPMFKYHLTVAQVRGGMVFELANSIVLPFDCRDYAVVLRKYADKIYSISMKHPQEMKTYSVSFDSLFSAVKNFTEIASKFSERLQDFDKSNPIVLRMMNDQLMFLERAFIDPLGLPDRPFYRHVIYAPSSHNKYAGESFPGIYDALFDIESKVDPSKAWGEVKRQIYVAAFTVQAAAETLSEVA
- assay-summary: cell-based or functional assay
observed-property: C4-2 Cell depletion EC50 (nM)
Enter your answer as a number in nM; do not include the unit.

Just so you know, measured C4-2 Cell depletion EC50 for BSPSMA/CD3-1700 (bispecific antibody, IgG4, V domains shown, modified (chimeric) IgG4 Fc domain; also called PSMA-VH-11810 x CD3-VH-G17) VH 1: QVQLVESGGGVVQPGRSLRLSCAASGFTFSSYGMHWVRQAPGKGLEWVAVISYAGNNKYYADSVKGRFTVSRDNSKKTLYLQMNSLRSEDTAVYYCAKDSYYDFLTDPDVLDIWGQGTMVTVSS VH 2: EVQLVESGGGLVQPGRSLRLSCAASGFTFDDYSMHWVRQAPGKGLEWVSGISWNSGSKGYADSVKGRFTISRDNAKNSLYLQMNSLRAEDTALYYCAKYGSGYGKFYYYGMDVWGQGTTVTVSS VL: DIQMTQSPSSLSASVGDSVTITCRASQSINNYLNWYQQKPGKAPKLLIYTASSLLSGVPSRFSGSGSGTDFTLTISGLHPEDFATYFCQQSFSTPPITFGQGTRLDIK came out at 0.00737

Value of measured C4-2 Cell depletion EC50 for the entry BSPSMA/CD3-004 (bispecific antibody, IgG4, V domains shown, modified (chimeric) IgG4 Fc domain; also called PSMA-VH-11810 x CD3-VH-G5) VH 1: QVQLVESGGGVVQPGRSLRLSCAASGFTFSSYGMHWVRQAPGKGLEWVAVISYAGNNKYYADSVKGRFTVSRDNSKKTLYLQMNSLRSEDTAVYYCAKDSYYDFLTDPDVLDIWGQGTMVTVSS VH 2: EVQLVESGGGLVQPGRSLRLSCAASGFTFDDYSMHWVRQAPGKGLEWVSGISWNSGSIGYADSVKGRFTISRDNAKNSLYLQMNSLRAEDTALYYCAKDGSGYGKFYYYGMDVWGQGTTVTVSS VL: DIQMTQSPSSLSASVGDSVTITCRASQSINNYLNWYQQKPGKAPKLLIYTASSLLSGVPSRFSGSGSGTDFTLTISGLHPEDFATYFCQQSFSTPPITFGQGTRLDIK : 0.0215

Entry BSPSMA/CD3-1300 (bispecific antibody, IgG4, V domains shown, modified (chimeric) IgG4 Fc domain; also called PSMA-VH-11810 x CD3-VH-G13) VH 1: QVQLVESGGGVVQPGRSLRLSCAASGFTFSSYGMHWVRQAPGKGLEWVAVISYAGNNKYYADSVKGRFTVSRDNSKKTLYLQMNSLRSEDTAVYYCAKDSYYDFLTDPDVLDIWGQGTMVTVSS VH 2: EVQLVESGGGLVQPGRSLRLSCAASGFTFDDYSMHWVRQAPGKGLEWVSGISWNSGSIGYADSVKGRFTISRDNAKNSLYLQMNSLRAEDTALYYCAKYGSGYGKFYYYGLDVWGQGTTVTVSS VL: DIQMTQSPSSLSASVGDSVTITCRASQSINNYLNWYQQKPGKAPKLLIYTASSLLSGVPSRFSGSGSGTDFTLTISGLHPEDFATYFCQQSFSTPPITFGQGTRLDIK , C4-2 Cell depletion EC50 reported as 0.00874

Noted for BSPSMA/CD3-005 (bispecific antibody, IgG4, V domains shown, modified (chimeric) IgG4 Fc domain; also called PSMA-VH-11810 x CD3-VH-G20) VH 1: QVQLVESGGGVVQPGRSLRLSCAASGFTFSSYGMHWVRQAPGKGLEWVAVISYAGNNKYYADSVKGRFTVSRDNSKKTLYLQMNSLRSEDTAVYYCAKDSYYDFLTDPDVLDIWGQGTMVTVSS VH 2: EVQLVESGGGLVQPGRSLRLSCAASGFTFDDYSMHWVRQAPGKGLEWVSGISWNSGSIGYADSVKGRFTISRDNAKNSLYLQMNSLRAEDTALYYCAKYGSGYGKFYYYGMDVWGQGTTVTVSS VL: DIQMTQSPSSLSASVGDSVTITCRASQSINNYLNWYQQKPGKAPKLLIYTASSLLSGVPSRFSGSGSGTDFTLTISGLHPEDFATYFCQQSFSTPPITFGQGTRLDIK : its C4-2 Cell depletion EC50 reads 0.0139

C4-2 Cell depletion EC50 reading for BSPSMA/CD3-003 (bispecific antibody, IgG4, V domains shown, modified (chimeric) IgG4 Fc domain; also called PSMA-VH-11810 x CD3-VH-G) VH 1: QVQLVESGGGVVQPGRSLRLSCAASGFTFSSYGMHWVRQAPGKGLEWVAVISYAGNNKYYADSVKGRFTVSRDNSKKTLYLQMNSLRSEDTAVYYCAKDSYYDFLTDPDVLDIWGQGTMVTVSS VH 2: EVQLVESGGGLVQPGRSLRLSCAASGFTFDDYSMHWVRQAPGKGLEWVSGISWNSGSKGYADSVKGRFTISRDNAKNSLYLQMNSLRAEDTALYYCAKYGSGYGKFYHYGLDVWGQGTTVTVSS VL: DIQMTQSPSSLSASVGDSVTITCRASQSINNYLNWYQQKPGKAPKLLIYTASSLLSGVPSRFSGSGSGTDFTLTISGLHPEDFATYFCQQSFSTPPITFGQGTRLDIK : 0.0103

// data source = patent US20190127480A1
